Notes on AC50 obtained with Delta-type opioid receptor (Homo sapiens, UniProt P41143).
Sequence (P41143 whole entry): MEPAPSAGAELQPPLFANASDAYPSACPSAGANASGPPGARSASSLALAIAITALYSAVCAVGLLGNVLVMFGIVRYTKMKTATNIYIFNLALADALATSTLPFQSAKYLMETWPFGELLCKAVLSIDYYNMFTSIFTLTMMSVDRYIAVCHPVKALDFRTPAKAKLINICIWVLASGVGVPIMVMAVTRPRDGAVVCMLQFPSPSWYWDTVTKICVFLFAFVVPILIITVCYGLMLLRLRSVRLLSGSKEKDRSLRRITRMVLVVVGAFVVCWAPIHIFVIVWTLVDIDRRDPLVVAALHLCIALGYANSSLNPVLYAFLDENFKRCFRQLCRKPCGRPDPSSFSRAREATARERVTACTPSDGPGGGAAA

INSERT INTO measurements (molecule, assay_metric, recorded_result) VALUES
  ('CCCN(CCc1cccs1)[C@H]1CCc2c(O)cccc2C1 [ROTIGOTINE]', 'AC50', '25 µM'),
  ('CCOc1cc(CC(=O)N[C@@H](CC(C)C)c2ccccc2N2CCCCC2)ccc1C(=O)O [REPAGLINIDE]', 'AC50', '> 30 µM'),
  ('C[C@H]1Oc2cc(cnc2N)-c2c(nn(C)c2C#N)CN(C)C(=O)c2ccc(F)cc21 [LORLATINIB]', 'AC50', '> 30 µM'),
  ('C=C(C)[C@@H]1CCC(C)=C[C@H]1c1c(O)cc(CCCCC)cc1O [CANNABIDIOL]', 'AC50', '> 30 µM'),
  ('NC(=O)CCC/N=C(\c1ccc(Cl)cc1)c1cc(F)ccc1O [PROGABIDE]', 'AC50', '> 30 µM'),
  ('Nc1nc(F)nc2c1ncn2[C@@H]1O[C@H](COP(=O)(O)O)[C@@H](O)[C@@H]1O [FLUDARABINE PHOSPHATE]', 'AC50', '> 30 µM');

Would you mind giving AC50 for every molecule in the list below?
1. CCCN(CC)C(CC)C(=O)Nc1c(C)cccc1C (configuration not stated) [ETIDOCAINE]
2. O=C(Nc1nc(-c2cc(Cl)cs2)c(N2CCN(C3CCCCC3)CC2)s1)c1cnc(N2CCC(C(=O)O)CC2)c(Cl)c1 [AVATROMBOPAG]
3. Cc1ccc(=O)n(-c2ccccc2)c1 [PIRFENIDONE]
4. O=C1CN2Cc3c(ccc(Cl)c3Cl)N=C2N1 [ANAGRELIDE]
5. C[C@@H]1C[C@H]2[C@@H]3C[C@H](F)C4=CC(=O)C=C[C@]4(C)[C@@]3(F)[C@@H](O)C[C@]2(C)[C@H]1C(=O)CO [DIFLUCORTOLONE]
6. O=C(O)CSCC(=O)NC1CCSC1=O (configuration not stated) [ERDOSTEINE]

1: > 30 µM; 2: > 10 µM; 3: > 30 µM; 4: > 30 µM; 5: > 30 µM; 6: > 30 µM
